- Tested on: K4 kissing-loop RNA reporter;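 further: bound reporter read as fluorescence of individual clusters on recovered sequencing chips by microscopy, with normalized cluster intensities fitted with a binding model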
- ASSAY PROTOCOL: apparent KD of K4 kissing-loop reporter; higher = weaker reporter binding
- CONDITION SUMMARY: Eterna round: R107; input ligand: theophylline 20 uM
MEASURE NAME: apparent KD of K4 kissing-loop reporter (nM)

1) GGAGAGGUCUUGUUUGGAUGUGUUUAAUGGCGAGGACCGGUACGGCCGCCACUCGGGUGAUGUUAGUGAUGUUGAUGUUGUGAUG ['oo'mullin]; 219
2) AUGGCACGACUUGCCCACAAUGUCUAUGCCCGAGGACCGGUACGGCCGCCACUCGGAUGCCGUGUCUUAUUAGUGAUGUUGAUAC [theeternabot_sameState_KL_Trp_A_4]; 355
3) GGGCGCGGCGCGGCCGCCACUGGGCCUGGGCGCUCGCUGAGUGAUGUUCGUCGGCGGCUGGGUCGUAGGACCGGGUGCCGGCUGG [BDazzled - #4 SS Tryptophan B]; 627

Reference source: the supplement of paper PMC9170038
